Cited source: PubChem BioAssay (EPA / NIEHS)

- Read-out: Macrophage colony-stimulating factor (MCSF), CSF1 (gene 1435)
- PROCEDURE SUMMARY: BSK_hDFCGF_MCSF: BioMAP Diversity Plus: hDFCGF Assay for Macrophage colony-stimulating factor (MCSF) Biomarker Activity (AID 2283060)
- CONDITION: primary human foreskin fibroblasts; actives raise or lower the signal
Active and inactive are the calls of the source. The calls were made as follows: active = hit-call score of the fitted dose curve at least 0.9, where 1 is the maximum; inactive = score below 0.9.
Outcomes: active, inactive

| COMPOUND | CLASS ASSIGNMENT |
| --- | --- |
| COCC(=O)N(c1c(C)cccc1C)N1CCOC1=O | inactive |
| N#CCCCCC#N | inactive |
| Oc1cc(Cl)ccc1Cl | inactive |
| CC(C)(c1cc(Cl)c(O)c(Cl)c1)c1cc(Cl)c(O)c(Cl)c1 | active |
| O=c1c2ccccc2c(=O)c2c1cc(Cl)c1[nH]c3c([nH]c12)c(Cl)cc1c(=O)c2ccccc2c(=O)c13 | active |
| CC(C)CCCCCCCOP(=O)(Oc1ccccc1)Oc1ccccc1 | active |
| Clc1ccc(-c2ccccc2)cc1 | inactive |
| CC(C)(C)C(O)C(Oc1ccc(-c2ccccc2)cc1)n1cncn1 (stereo not drawn) | inactive |
| O=c1[nH]c(Cl)c(Cl)cc1Cl | inactive |
| Cc1ccc(OP(=O)(Oc2ccc(C)cc2)Oc2ccc(C)cc2)cc1 (tested in a mixture with another compound) | active |
| O=P1(NCCCl)OCCCN1CCCl (stereo not drawn) | inactive |
| COc1ccc(CO)cc1 | inactive |
| CC1(C)[C@H](C(=O)O[C@H](C#N)c2cccc(Oc3ccccc3)c2)[C@@H]1C=C(Br)Br | inactive |
